Measured protein stability index of individual entries
B1: CROP (parent)
chain: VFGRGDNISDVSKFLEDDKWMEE

- Variants of: B1
- Measurement notes: protein stability index of a GFP-peptide fusion (GPS, HEK-293T) (PSI 1-6); higher = more stable;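 also: lentivirally expressed fusions sorted by FACS into six bins by GFP to DsRed ratio, PSI derived from sequencing read proportions per bin multiplied by bin number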
- Conditions: c terminus: native
Quick one: just the number, no unit, thanks!

INSERT INTO measurements (mutation_name, reported_result) VALUES
  ('D10R', 1.55);

Here is another variant to look at.
Would you kindly share the measured protein stability index for V11A ?
2.4
